Total Unknown overview
PROTOCOL: Stability indicating HPLC assay and related substances on storage (Example 3)
Assay type: physicochemical
ASSAY_CONDITIONS: 1 month, 40° C./75% RH
# value in %; strip the unit string

COMPOUND	UNIT_LABEL	Total Unknown
CN1CC[C@]23c4c5ccc(O)c4O[C@H]2[C@@H](O[C@@H]2O[C@H](C(=O)O)[C@@H](O)[C@H](O)[C@H]2O)C=C[C@H]3[C@H]1C5.Cl [Morphine-6-glucuronide hydrochloride]	%	11.25
CN1CCC23c4c5ccc(O)c4OC2C(OC2OC(C(=O)O)C(O)C(O)C2O)C=CC3C1C5.CN1CCC23c4c5ccc(O)c4OC2C(OC2OC(C(=O)O)C(O)C(O)C2O)C=CC3C1C5.O=C(O)C=CC(=O)O (stereo not shown) [Morphine-6-glucuronide fumarate]	%	1.17
CN1CC[C@]23c4c5ccc(O)c4O[C@H]2[C@@H](O[C@@H]2O[C@H](C(=O)O)[C@@H](O)[C@H](O)[C@H]2O)C=C[C@H]3[C@H]1C5 [Morphine-6-glucuronide base, morphine-6-β-D-glucuronide]	%	0.34

Item CN1CCC23c4c5ccc(O)c4OC2C(OC2OC(C(=O)O)C(O)C(O)C2O)C=CC3C1C5.CN1CCC23c4c5ccc(O)c4OC2C(OC2OC(C(=O)O)C(O)C(O)C2O)C=CC3C1C5.O=C(O)C=CC(=O)O (stereo not shown) [Morphine-6-glucuronide maleate] has what recorded Total Unknown?
3.03

Another compound to check: CN1CCC23c4c5ccc(O)c4OC2C(OC2OC(C(=O)O)C(O)C(O)C2O)C=CC3C1C5.O=P(O)(O)O (stereo not shown) [Morphine-6-glucuronide phosphate]
2.07

Another compound to check: CN1CCC23c4c5ccc(O)c4OC2C(OC2OC(C(=O)O)C(O)C(O)C2O)C=CC3C1C5.CN1CCC23c4c5ccc(O)c4OC2C(OC2OC(C(=O)O)C(O)C(O)C2O)C=CC3C1C5.O=S(=O)(O)O (stereo not shown) [Morphine-6-glucuronide sulphate]
6.69

Another compound to check: Br.CN1CC[C@]23c4c5ccc(O)c4O[C@H]2[C@@H](O[C@@H]2O[C@H](C(=O)O)[C@@H](O)[C@H](O)[C@H]2O)C=C[C@H]3[C@H]1C5 [Morphine-6-glucuronide hydrobromide]
0.00

----------
PROTOCOL: Stability indicating HPLC assay and related substances on storage (Example 3)
Type: physicochemical
ASSAY_CONDITIONS: 1 month, 60° C.
M6G Assay, Corrected for the salt form overview
# value in % w/w; strip the unit string

COMPOUND	M6G Assay, Corrected for the salt form [% w/w]
CN1CCC23c4c5ccc(O)c4OC2C(OC2OC(C(=O)O)C(O)C(O)C2O)C=CC3C1C5.CN1CCC23c4c5ccc(O)c4OC2C(OC2OC(C(=O)O)C(O)C(O)C2O)C=CC3C1C5.O=C(O)C=CC(=O)O (stereo not shown) [Morphine-6-glucuronide maleate]	90.47
CN1CCC23c4c5ccc(O)c4OC2C(OC2OC(C(=O)O)C(O)C(O)C2O)C=CC3C1C5.O=P(O)(O)O (stereo not shown) [Morphine-6-glucuronide phosphate]	107.08
Br.CN1CC[C@]23c4c5ccc(O)c4O[C@H]2[C@@H](O[C@@H]2O[C@H](C(=O)O)[C@@H](O)[C@H](O)[C@H]2O)C=C[C@H]3[C@H]1C5 [Morphine-6-glucuronide hydrobromide]	99.25
CN1CC[C@]23c4c5ccc(O)c4O[C@H]2[C@@H](O[C@@H]2O[C@H](C(=O)O)[C@@H](O)[C@H](O)[C@H]2O)C=C[C@H]3[C@H]1C5.Cl [Morphine-6-glucuronide hydrochloride]	81.76
CN1CC[C@]23c4c5ccc(O)c4O[C@H]2[C@@H](O[C@@H]2O[C@H](C(=O)O)[C@@H](O)[C@H](O)[C@H]2O)C=C[C@H]3[C@H]1C5 [Morphine-6-glucuronide base, morphine-6-β-D-glucuronide]	96.18
CN1CCC23c4c5ccc(O)c4OC2C(OC2OC(C(=O)O)C(O)C(O)C2O)C=CC3C1C5.CN1CCC23c4c5ccc(O)c4OC2C(OC2OC(C(=O)O)C(O)C(O)C2O)C=CC3C1C5.O=C(O)C=CC(=O)O (stereo not shown) [Morphine-6-glucuronide fumarate]	92.44

Item CN1CCC23c4c5ccc(O)c4OC2C(OC2OC(C(=O)O)C(O)C(O)C2O)C=CC3C1C5.CN1CCC23c4c5ccc(O)c4OC2C(OC2OC(C(=O)O)C(O)C(O)C2O)C=CC3C1C5.O=S(=O)(O)O (stereo not shown) [Morphine-6-glucuronide sulphate] has what recorded M6G Assay, Corrected for the salt form?
70.62
